# experiment_description: Pharmacokinetic evaluation following a single oral and intravenous administration
# Assay type: in vivo, CD1 mouse
# condition_summary: CD1, mouse, plasma, po, 5 mg/kg, Table 6, PO Dose: 5 mg/kg, Mouse 4; read-out: T1/2 (converted)
measured_property: half-life

Problem: Dear colleague, I am looking for the recorded half-life of the following compound: CNCc1ccc(C[C@H](NC(C)=O)c2nnc(-c3cccc(OC(F)(F)F)c3)s2)cc1 [Compound 42140]
Result: 11.5 h

====

# experiment_description: Pharmacokinetic evaluation following a single oral and intravenous administration
# Assay type: in vivo, CD1 mouse
# condition_summary: CD1, mouse, plasma, iv, 1 mg/kg, Table 3, IV Dose: 1 mg/kg, 0.25 h, Mouse 1; read-out: Concentration
measured_property: concentration at 0.25 h (ng/mL)
One number for each entry, in ng/mL.

Problem: Dear colleague, I am looking for the recorded concentration at 0.25 h of the following compound: CNCc1ccc(C[C@H](NC(C)=O)c2nnc(-c3cccc(OC(F)(F)F)c3)s2)cc1 [Compound 42140]
Result: 81.5
